- SYSTEM NAME: T1, human PTH1R overexpressed on CHO cells (human, UniProt Q03431 27-593)
- T1 sequence (looked up): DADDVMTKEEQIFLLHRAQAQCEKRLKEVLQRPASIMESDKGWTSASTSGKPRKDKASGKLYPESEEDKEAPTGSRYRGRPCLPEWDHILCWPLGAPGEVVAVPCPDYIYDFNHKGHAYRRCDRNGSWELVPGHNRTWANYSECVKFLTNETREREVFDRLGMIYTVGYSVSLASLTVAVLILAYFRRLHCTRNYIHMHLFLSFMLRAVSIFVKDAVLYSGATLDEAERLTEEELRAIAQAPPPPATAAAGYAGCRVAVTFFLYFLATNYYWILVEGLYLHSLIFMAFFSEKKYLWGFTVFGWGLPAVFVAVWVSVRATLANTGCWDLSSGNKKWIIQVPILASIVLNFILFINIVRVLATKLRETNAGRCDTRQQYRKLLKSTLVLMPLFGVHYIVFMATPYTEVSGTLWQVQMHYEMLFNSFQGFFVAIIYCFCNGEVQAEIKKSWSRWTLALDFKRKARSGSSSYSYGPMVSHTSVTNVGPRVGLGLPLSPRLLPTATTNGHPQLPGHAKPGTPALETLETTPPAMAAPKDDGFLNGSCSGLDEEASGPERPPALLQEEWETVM
- EXPERIMENTAL PROTOCOL: cell-based or functional assay
Reported EC50 of PTH(1-34), cAMP assay, with 267 nM IgG is given for each of the following binders.
Dear colleague, please return just the value in nM, with no unit written.

{"BINDER": "XPA.85.340 (antibody, V domains shown, Light-chain-shuffled variant of XPA.85.017) VH: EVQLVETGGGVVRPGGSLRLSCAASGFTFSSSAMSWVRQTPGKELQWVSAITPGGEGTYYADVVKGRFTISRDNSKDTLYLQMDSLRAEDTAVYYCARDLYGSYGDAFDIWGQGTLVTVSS VL: SYVLTQPPSVSVAPGQTASITCSGDNLGEKFVSWYQQKAGQSPVLVIFEDNKRPSGIPERFAGSNSGNRATLTIRGTQAEDEADYYCQAWDSSWVFGGGTQLTVL", "REPORTED VALUE": 0.404}

Please look at the following binder next.
Specify measured EC50 of PTH(1-34), cAMP assay, with 267 nM IgG for XPA.85.339 (antibody, V domains shown, Light-chain-shuffled variant of XPA.85.017) VH: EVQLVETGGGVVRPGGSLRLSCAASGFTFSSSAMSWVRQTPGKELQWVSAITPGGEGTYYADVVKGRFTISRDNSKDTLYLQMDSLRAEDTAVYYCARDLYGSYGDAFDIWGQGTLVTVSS VL: SYELTQPPSVSVAPGQTATITCSGDRLGDKFISWYQQKPGQSPLLVIFEDNERPSRIPERFSGSNSGNSATLTISGTQAVDEADYYCQAWDSSWVFGGGTQLTVL .
0.613
